All figures here come from patent US20220363709A1.

# assay_system: recombinant CD73 (Homo sapiens, UniProt P21589)
# Construct: purchased R&D Systems 5795-EN-010
# Sequence (P21589 27-547 limits assumed): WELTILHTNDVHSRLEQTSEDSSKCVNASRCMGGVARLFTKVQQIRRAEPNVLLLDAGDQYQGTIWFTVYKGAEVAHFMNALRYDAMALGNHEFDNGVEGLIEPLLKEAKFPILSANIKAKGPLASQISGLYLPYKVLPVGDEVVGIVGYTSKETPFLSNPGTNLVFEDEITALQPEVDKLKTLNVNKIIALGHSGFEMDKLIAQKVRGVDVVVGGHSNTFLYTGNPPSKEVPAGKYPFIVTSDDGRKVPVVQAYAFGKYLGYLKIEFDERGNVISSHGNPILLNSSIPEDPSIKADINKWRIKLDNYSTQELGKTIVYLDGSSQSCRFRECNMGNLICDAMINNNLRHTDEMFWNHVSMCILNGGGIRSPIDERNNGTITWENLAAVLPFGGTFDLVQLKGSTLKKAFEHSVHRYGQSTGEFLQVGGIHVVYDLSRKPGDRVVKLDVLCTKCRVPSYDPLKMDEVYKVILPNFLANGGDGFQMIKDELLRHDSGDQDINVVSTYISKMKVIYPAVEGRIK
# measurement_description: Assay 1: Inhibition of the CD73 Enzyme In Vitro
# Type: biochemical
# experimental_conditions: soluble recombinant CD73 0.5 nM, AMP 50 μM, 30 minutes at room temperature, Malachite Green, absorbance at 630 nm; read-out: Assay 1 CD73 IC50
measure_name: IC50 (µM)

molecule: Nc1nc(Cl)nc2c1ncn2[C@@H]1O[C@H](CO[C@](Cc2ccc(-c3ccccc3C(=O)O)cc2)(C(=O)O)c2ccccc2)[C@@H](O)[C@H]1O (single isomer, unassigned)
numeric_readout: 4.22

molecule: Nc1nc(Cl)nc2c1ncn2[C@@H]1O[C@H](COC(C(=O)O)c2cscn2)[C@@H](O)[C@@H]1F (mixture of isomers)
numeric_readout: 22.1

molecule: Nc1nc(Cl)nc2c1ncn2[C@@H]1O[C@H](CO[C@@](Cc2ccc(-c3ccccc3CC(=O)O)cc2)(C(=O)O)c2cscn2)[C@@H](O)[C@H]1O (single isomer, unassigned)
numeric_readout: 1.03

1 = Nc1nc([C@](Cc2ccccc2)(OC[C@H]2O[C@@H](n3cnc4c(N)nc(Cl)nc43)[C@H](O)[C@@H]2O)C(=O)O)cs1 (single isomer, unassigned)
2 = Nc1nc(Cl)nc2c1ncn2[C@@H]1O[C@H](COC(Cc2ccccc2)(C(=O)O)c2cc[nH]n2)[C@@H](O)[C@H]1O (mixture of isomers)
3 = CCN(CC)C(=O)c1ccccc1-c1ccc(CC(OC[C@H]2O[C@@H](n3cnc4c(N)nc(Cl)nc43)[C@H](O)[C@@H]2O)(C(=O)O)c2cscn2)cc1 (mixture of isomers)
4 = Nc1nc(Cl)nc2c1ncn2[C@@H]1O[C@H](CO[C@@](Cc2ccc(-c3ccc(C(=O)O)cc3)cc2)(C(=O)O)c2cscn2)[C@@H](O)[C@H]1O (single isomer, unassigned)
Inquiry: Rank items: key IC50, increasing. Please reply with the labels ordered as requested. Many thanks.
Reply text: 1, 3, 4, 2
(1: 0.342 µM, 3: 0.833 µM, 4: 1.25 µM, 2: 2.06 µM)
